tested on: Platelet-derived growth factor receptor alpha (Homo sapiens), P16234 [V561D]; conditions: at 0.1 µM
Sequence (P16234 whole entry V561D): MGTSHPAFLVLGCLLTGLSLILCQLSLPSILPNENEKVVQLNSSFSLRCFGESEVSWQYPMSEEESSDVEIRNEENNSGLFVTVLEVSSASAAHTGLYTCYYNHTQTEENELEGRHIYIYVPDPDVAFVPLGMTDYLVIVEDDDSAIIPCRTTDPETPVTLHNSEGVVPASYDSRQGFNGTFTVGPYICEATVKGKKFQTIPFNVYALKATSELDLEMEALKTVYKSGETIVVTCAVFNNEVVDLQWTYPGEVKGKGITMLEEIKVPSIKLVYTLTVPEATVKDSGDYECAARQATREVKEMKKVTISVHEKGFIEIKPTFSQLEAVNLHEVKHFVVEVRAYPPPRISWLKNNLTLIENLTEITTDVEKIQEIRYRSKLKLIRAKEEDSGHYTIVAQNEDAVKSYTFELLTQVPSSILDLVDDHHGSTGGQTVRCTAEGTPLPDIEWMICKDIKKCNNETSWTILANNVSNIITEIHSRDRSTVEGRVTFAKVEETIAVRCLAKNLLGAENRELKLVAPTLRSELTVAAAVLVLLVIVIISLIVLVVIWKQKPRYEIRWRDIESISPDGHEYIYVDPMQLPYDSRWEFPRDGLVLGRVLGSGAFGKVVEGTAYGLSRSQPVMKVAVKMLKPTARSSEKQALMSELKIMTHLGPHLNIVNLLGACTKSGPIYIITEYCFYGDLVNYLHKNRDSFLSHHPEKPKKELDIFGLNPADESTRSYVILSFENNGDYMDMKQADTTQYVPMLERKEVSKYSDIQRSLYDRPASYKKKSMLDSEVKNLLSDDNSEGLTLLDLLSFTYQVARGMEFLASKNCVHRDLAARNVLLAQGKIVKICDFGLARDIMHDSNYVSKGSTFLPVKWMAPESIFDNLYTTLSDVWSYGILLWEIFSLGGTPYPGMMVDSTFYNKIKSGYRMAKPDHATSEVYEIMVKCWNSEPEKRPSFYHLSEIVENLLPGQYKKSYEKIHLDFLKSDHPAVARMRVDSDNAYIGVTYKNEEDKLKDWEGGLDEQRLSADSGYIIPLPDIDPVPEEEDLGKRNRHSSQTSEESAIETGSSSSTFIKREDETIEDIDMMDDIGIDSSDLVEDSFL
Label TRUE when inhibition >= 7%; otherwise FALSE.

[[record]]
structure_string = "O=C1Nc2ccccc2/C1=C1\\CCc2cc(O)ccc21"
qualitative_label = "TRUE"

[[record]]
structure_string = "COc1ccc(-c2nn3ncccc3c2-c2ccnc(Nc3ccc(F)c(F)c3)n2)cc1"
qualitative_label = "TRUE"

[[record]]
structure_string = "COc1ccc(Nc2ncc(-c3ccccc3)o2)cc1OC"
qualitative_label = "TRUE"

[[record]]
structure_string = "N#Cc1ccc2c(-c3ccnc(NC4CC4)n3)c(-c3ccc(F)cc3)nn2c1"
qualitative_label = "FALSE"


--- query ---
IN: Please tell me: is the molecule `Fc1ccc(Nc2nccc(-c3c(-c4ccc(C(F)(F)F)cc4)nn4ncccc34)n2)cc1F` at or over 7% in terms of inhibition?
OUT: FALSE

---

target: Serine/threonine-protein kinase PAK 3 (Homo sapiens) (UniProt O75914); conditions: at 1 µM;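 also: reported percentage is a mean inhibition value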
Sequence (O75914 whole entry, looked up): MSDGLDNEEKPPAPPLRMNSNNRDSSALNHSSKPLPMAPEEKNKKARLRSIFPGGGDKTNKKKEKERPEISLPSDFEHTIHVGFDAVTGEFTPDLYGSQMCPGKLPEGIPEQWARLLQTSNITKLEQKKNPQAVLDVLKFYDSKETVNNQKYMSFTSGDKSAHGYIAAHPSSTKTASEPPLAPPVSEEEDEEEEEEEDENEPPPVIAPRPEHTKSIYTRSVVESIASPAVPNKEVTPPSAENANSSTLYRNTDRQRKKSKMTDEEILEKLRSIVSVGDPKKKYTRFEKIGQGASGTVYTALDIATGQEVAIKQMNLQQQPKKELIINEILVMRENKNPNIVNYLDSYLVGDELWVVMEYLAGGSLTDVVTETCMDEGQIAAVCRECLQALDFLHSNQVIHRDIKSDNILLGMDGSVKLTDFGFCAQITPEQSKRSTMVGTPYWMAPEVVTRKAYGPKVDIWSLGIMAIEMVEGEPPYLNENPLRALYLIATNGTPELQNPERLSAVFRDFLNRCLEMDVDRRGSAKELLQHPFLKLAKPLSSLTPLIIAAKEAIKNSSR
Measured quantity: inhibition (%)
Express it in %; write the number only.

Consider the following illustrative entries.
[[record]]
structure_string = "CS(=O)(=O)CCNCc1ccoc1-c1ccc2ncnc(Nc3ccc(OCc4ccccc4)cc3)c2c1"
measured_quantity = "inhibition"
endpoint_result = -0.05

[[record]]
structure_string = "O=C(Nc1n[nH]c2nnc(-c3cccnc3)cc12)C1CC1"
measured_quantity = "inhibition"
endpoint_result = 0.64

[[record]]
structure_string = "CCCNc1cccc(-n2ncc3c(N/N=C/c4ccncc4)ncnc32)c1"
measured_quantity = "inhibition"
endpoint_result = 1.61


IN: Indicate its recorded inhibition; the molecule in question is `COc1cc(Nc2ncc(-c3ccccc3)o2)cc(OC)c1`
OUT: 3.26

IN: Indicate its recorded inhibition; the molecule in question is `CS(=O)(=O)Nc1ccc(-c2cc(-c3ccccc3)cc(C(N)=O)c2N)cc1`
OUT: 3.38

IN: Indicate its recorded inhibition; the molecule in question is `CNC(=O)c1cncc(/C=C/c2ccccc2C)c1`
OUT: 5.93

IN: Indicate its recorded inhibition; the molecule in question is `COc1c(C(N)=O)cc(-c2ccc(Cl)cc2)cc1-c1ccc(S(N)(=O)=O)cc1`
OUT: 7.97

IN: Indicate its recorded inhibition; the molecule in question is `COc1ccc(-c2nn3ncccc3c2-c2ccnc(Nc3ccc(F)c(F)c3)n2)cc1`
OUT: 5.12

IN: Indicate its recorded inhibition; the molecule in question is `CN(c1ccc(NC(=O)NCCN2CCOCC2)cc1)c1ccnc(Nc2ccc(CS(C)(=O)=O)cc2)n1`
OUT: 3.94

---

Examples of compounds with documented inhibition follow.
System: Receptor-type tyrosine-protein kinase FLT3 (Homo sapiens), P36888 [D835Y]
Sequence (whole entry): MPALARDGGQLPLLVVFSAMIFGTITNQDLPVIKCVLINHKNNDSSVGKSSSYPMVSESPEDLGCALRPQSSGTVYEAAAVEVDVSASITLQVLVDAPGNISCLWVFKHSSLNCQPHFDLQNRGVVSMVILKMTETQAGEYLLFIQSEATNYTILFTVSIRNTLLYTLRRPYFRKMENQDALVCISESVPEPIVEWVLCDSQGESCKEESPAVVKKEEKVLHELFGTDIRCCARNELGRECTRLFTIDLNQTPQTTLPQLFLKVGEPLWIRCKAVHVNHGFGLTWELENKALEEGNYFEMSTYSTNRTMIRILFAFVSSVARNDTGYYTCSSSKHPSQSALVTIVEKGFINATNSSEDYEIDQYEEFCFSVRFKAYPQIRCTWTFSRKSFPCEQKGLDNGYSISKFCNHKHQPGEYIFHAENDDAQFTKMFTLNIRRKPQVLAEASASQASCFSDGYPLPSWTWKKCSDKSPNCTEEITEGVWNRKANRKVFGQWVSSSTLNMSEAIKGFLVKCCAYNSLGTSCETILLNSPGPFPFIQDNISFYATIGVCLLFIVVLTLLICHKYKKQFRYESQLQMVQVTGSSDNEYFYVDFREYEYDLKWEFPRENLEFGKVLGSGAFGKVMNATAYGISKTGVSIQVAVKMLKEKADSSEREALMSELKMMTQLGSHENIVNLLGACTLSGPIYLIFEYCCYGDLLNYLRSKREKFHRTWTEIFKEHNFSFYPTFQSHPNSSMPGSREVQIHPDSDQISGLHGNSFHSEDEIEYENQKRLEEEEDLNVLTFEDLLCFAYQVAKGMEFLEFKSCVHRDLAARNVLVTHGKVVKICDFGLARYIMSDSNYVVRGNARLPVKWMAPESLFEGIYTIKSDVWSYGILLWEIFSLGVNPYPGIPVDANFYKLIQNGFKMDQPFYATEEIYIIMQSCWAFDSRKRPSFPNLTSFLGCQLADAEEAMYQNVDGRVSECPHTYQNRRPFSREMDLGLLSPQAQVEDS
Conditions: at 0.1 µM
Express it in %; write the number only.

[[record]]
compound = "O=C(Nc1n[nH]c2nnc(-c3cccnc3)cc12)C1CC1"
display_unit = "%"
endpoint_result = 0.49

[[record]]
compound = "Fc1cccc(COc2ccc(Nc3ncncc3C#Cc3ccccc3)cc2Cl)c1"
display_unit = "%"
endpoint_result = 4.26

[[record]]
compound = "COc1ccc(Nc2ncc(-c3ccccc3)o2)cc1OC"
display_unit = "%"
endpoint_result = 15.2

[[record]]
compound = "N#Cc1cccc(Nc2ncc(-c3ccccc3)o2)c1"
display_unit = "%"
endpoint_result = 3.75

[[record]]
compound = "Cc1c2ccc(N(C)c3ccnc(Nc4cccc(S(N)(=O)=O)c4)n3)cc2nn1C"
display_unit = "%"
endpoint_result = -0.8


IN: Please respond with reported inhibition (system Receptor-type tyrosine-protein kinase FLT3 (Homo sapiens), P36888 [D835Y]) for `CNC(=O)c1sc(-n2cnc3cc(OC)c(OC)cc32)cc1OCc1ccccc1C(F)(F)F` .
OUT: -3.62

IN: Please respond with reported inhibition (system Receptor-type tyrosine-protein kinase FLT3 (Homo sapiens), P36888 [D835Y]) for `Cn1c(-c2nonc2N)nc2cnccc21` .
OUT: 1.71

IN: Please respond with reported inhibition (system Receptor-type tyrosine-protein kinase FLT3 (Homo sapiens), P36888 [D835Y]) for `c1cnn2ncc(-c3ccnc(NCCCN4CCOCC4)n3)c2c1` .
OUT: 0.21

IN: Please respond with reported inhibition (system Receptor-type tyrosine-protein kinase FLT3 (Homo sapiens), P36888 [D835Y]) for `OCCCNc1nccc(-c2c(-c3ccc(F)cc3)nn3cc(C(F)(F)F)ccc23)n1` .
OUT: -1.23

IN: Please respond with reported inhibition (system Receptor-type tyrosine-protein kinase FLT3 (Homo sapiens), P36888 [D835Y]) for `CN1CCC(n2cnc(-c3ccc(F)cc3)c2-c2ccnc(NCCO)n2)CC1` .
OUT: -2.58

IN: Please respond with reported inhibition (system Receptor-type tyrosine-protein kinase FLT3 (Homo sapiens), P36888 [D835Y]) for CC1=C(C(=O)Nc2ccc3[nH]ncc3c2)C(c2ccc(F)cc2)N=C(c2ccc(C(F)(F)F)nc2)N1 (stereo unspecified) .
OUT: -1.1

IN: Please respond with reported inhibition (system Receptor-type tyrosine-protein kinase FLT3 (Homo sapiens), P36888 [D835Y]) for `COc1cc(N2CCN(C(C)C)CC2)ccc1Nc1nc(Nc2cccc3ncccc23)c2cc[nH]c2n1` .
OUT: 1.05

IN: Please respond with reported inhibition (system Receptor-type tyrosine-protein kinase FLT3 (Homo sapiens), P36888 [D835Y]) for `O=C(O[C@H]1CN[C@H](C#Cc2cc3ncnc(Nc4ccc5c(ccn5Cc5cc(F)ccc5F)c4)c3s2)C1)N1CCOCC1` .
OUT: -5.8
